Reference source: patent US20250332173A1

Tested on: MYB mRNA
Test: RT-qPCR splicing assay, MYB canonical junction (CJ) and alternative junction (AJ) mRNA
Type: cell-based, human
Details: Homo sapiens; increase in MYB alternative junction (AJ) mRNA, RT-qPCR; read-out: MYB AJ AC50
MEASURED_METRIC: AC50

Q. Dear colleague, I am looking for the recorded AC50 of the following compound: Cc1cn2nc(-c3cc(F)c4c(=O)n(C5CCNCC5)cnc4c3)cc2c(C)n1
A. < 100 nM

Batch request: AC50 for each of the following compounds.
1. Cc1cn2cc(-c3cc(F)c4c(=O)n(C5CCNCC5)cc(C)c4c3)cc(F)c2n1
2. Cc1cn2nc(-c3ccc4c(c3)CCN([C@@H]3CCN[C@H](C)C3)C4=O)cc(C)c2n1
3. Cc1cn2nc(-c3ccc4c(=O)n([C@H]5CCNC5)ccc4n3)cc(C)c2n1

A.
< 100 nM
1000 to 10000 nM
100 to 1000 nM
